tested on: Enterococcus sp.; test: in vitro antibacterial evaluation, MIC by broth dilution; format: cell-based; conditions: strain GC 4554; broth dilution, 18 hours at 35° C.
MEASUREMENT_TYPE: MIC Enterococcus faecalis (GC 4554)

{"COMPOUND": "CCCCCCC(=O)Nc1cc(CC2NC(=O)C(C(C)c3ccccc3)NC(=O)CNC(=O)C(CO)NC(=O)C(C(O)C3CNC(=N)N3C3OC(CO)C(O)C(O)C3O)NC(=O)C(C(O)C3CNC(=N)N3)NC2=O)ccc1O (centres unmarked) [Example 16]", "RESULT": ">128 µg/mL"}
{"COMPOUND": "CC(C)=CCCC(C)=CCOc1ccc(C2OCC3OC(OC4C(CO)OC(Oc5ccc(CC6NC(=O)C(C(C)c7ccccc7)NC(=O)CNC(=O)C(CO)NC(=O)C(C(O)C7CNC(=N)N7C7OC(CO)C(O)C(O)C7O)NC(=O)C(C(O)C7CNC(=N)N7)NC6=O)cc5)C(O)C4O)C(O)C(O)C3O2)cc1 (centres unmarked) [Example 183]", "RESULT": "4 µg/mL"}

---

Quick reference: MIC Streptococcus agalactiae (GC 4564) of the listed items.
test system: Streptococcus sp.; test: in vitro antibacterial evaluation, MIC by broth dilution; format: cell-based; conditions: strain GC 4564; broth dilution, 18 hours at 35° C.
MEASUREMENT_TYPE: MIC Streptococcus agalactiae (GC 4564)

{"COMPOUND": "CCCCCCC(=O)Nc1cc(CC2NC(=O)C(C(C)c3ccccc3)NC(=O)CNC(=O)C(CO)NC(=O)C(C(O)C3CNC(=N)N3C3OC(CO)C(O)C(O)C3O)NC(=O)C(C(O)C3CNC(=N)N3)NC2=O)ccc1O (centres unmarked)", "MEASUREMENT_TYPE": "MIC Streptococcus agalactiae (GC 4564)", "RESULT": "64 µg/mL"}
{"COMPOUND": "CC(c1ccccc1)C1NC(=O)CNC(=O)C(CO)NC(=O)C(C(O)C2CNC(=N)N2C2OC(CO)C(O)C(O)C2O)NC(=O)C(C(O)C2CNC(=N)N2)NC(=O)C(Cc2ccc3oc(-c4cccc([N+](=O)[O-])c4)nc3c2)NC1=O (centres unmarked)", "MEASUREMENT_TYPE": "MIC Streptococcus agalactiae (GC 4564)", "RESULT": "16 µg/mL"}
{"COMPOUND": "CC(c1ccccc1)C1NC(=O)CNC(=O)C(CO)NC(=O)C(C(O)C2CNC(=N)N2C2OC(CO)C(O)C(O)C2O)NC(=O)C(C(O)C2CNC(=N)N2)NC(=O)C(Cc2ccc3oc(-c4ccc(N(C)C)cc4)nc3c2)NC1=O (centres unmarked)", "MEASUREMENT_TYPE": "MIC Streptococcus agalactiae (GC 4564)", "RESULT": "32 µg/mL"}
{"COMPOUND": "CC(c1ccccc1)C1NC(=O)CNC(=O)C(CO)NC(=O)C(C(O)C2CNC(=N)N2C2OC(CO)C(O)C(O)C2O)NC(=O)C(C(O)C2CNC(=N)N2)NC(=O)C(Cc2ccc3oc(-c4ccccc4OC4OC(CO)C(O)C(O)C4O)nc3c2)NC1=O (centres unmarked)", "MEASUREMENT_TYPE": "MIC Streptococcus agalactiae (GC 4564)", "RESULT": ">128 µg/mL"}
{"COMPOUND": "COc1cc(-c2nc3cc(CC4NC(=O)C(C(C)c5ccccc5)NC(=O)CNC(=O)C(CO)NC(=O)C(C(O)C5CNC(=N)N5C5OC(CO)C(O)C(O)C5O)NC(=O)C(C(O)C5CNC(=N)N5)NC4=O)ccc3o2)cc(OC)c1OC (centres unmarked)", "MEASUREMENT_TYPE": "MIC Streptococcus agalactiae (GC 4564)", "RESULT": "32 µg/mL"}
{"COMPOUND": "Cc1cc(C2OCC3OC(OC4C(CO)OC(Oc5ccc(CC6NC(=O)C(C(C)c7ccccc7)NC(=O)CNC(=O)C(CO)NC(=O)C(C(O)C7CNC(=N)N7C7OC(CO)C(O)C(O)C7O)NC(=O)C(C(O)C7CNC(=N)N7)NC6=O)cc5)C(O)C4O)C(O)C(O)C3O2)ccc1[N+](=O)[O-] (centres unmarked)", "MEASUREMENT_TYPE": "MIC Streptococcus agalactiae (GC 4564)", "RESULT": "4 µg/mL"}
{"COMPOUND": "CC(c1ccccc1)C1NC(=O)CNC(=O)C(CO)NC(=O)C(C(O)C2CNC(=N)N2C2OC(CO)C(O)C(O)C2O)NC(=O)C(C(O)C2CNC(=N)N2)NC(=O)C(Cc2ccc(OC3OC(CO)C(OC4OC5COC(c6cccc(-c7ccccc7)c6)OC5C(O)C4O)C(O)C3O)cc2)NC1=O (centres unmarked)", "MEASUREMENT_TYPE": "MIC Streptococcus agalactiae (GC 4564)", "RESULT": "<0.06 µg/mL"}
{"COMPOUND": "CSc1ccc(C2OCC3OC(OC4C(CO)OC(Oc5ccc(CC6NC(=O)C(C(C)c7ccccc7)NC(=O)CNC(=O)C(CO)NC(=O)C(C(O)C7CNC(=N)N7C7OC(CO)C(O)C(O)C7O)NC(=O)C(C(O)C7CNC(=N)N7)NC6=O)cc5)C(O)C4O)C(O)C(O)C3O2)cc1 (centres unmarked)", "MEASUREMENT_TYPE": "MIC Streptococcus agalactiae (GC 4564)", "RESULT": "<0.06 µg/mL"}

---

test system: Staphylococcus sp.; test: in vitro antibacterial evaluation, MIC by broth dilution; assay type: cell-based; settings: broth dilution, 18 hours at 35° C.; strain GC 4541
Quick reference: MIC Staphylococcus aureus (GC 4541) of the listed items.

{"MOLECULE": "CC(c1ccccc1)C1NC(=O)CNC(=O)C(CO)NC(=O)C(CC2CNC(=N)N2C2OC(CO)C(O)C(O)C2O)NC(=O)C(CC2CNC(=N)N2)NC(=O)C(Cc2ccc(OC3OC(CO)C(OC4OC(CO)C(O)C(O)C4OCc4ccc(OCc5ccccc5)cc4)C(O)C3O)cc2)NC1=O (stereo not shown) [Example 246c]", "CENSORING_OPERATOR": ">", "MIC Staphylococcus aureus (GC 4541) (µg/mL)": 128}
{"MOLECULE": "COC1CCC2(C)C(CCC3C2CCC2(C)C(C(C)CCC4OCC5OC(OC6C(CO)OC(Oc7ccc(CC8NC(=O)C(C(C)c9ccccc9)NC(=O)CNC(=O)C(CO)NC(=O)C(C(O)C9CNC(=N)N9C9OC(CO)C(O)C(O)C9O)NC(=O)C(C(O)C9CNC(=N)N9)NC8=O)cc7)C(O)C6O)C(O)C(O)C5O4)CCC32)C1 (stereo not shown)", "CENSORING_OPERATOR": "=", "MIC Staphylococcus aureus (GC 4541) (µg/mL)": 32}
{"MOLECULE": "CC(c1ccccc1)C1NC(=O)CNC(=O)C(CO)NC(=O)C(C(O)C2CNC(=N)N2C2OC(CO)C(O)C3OC(C)(C)OC32)NC(=O)C(C(O)C2CNC(=N)N2)NC(=O)C(Cc2ccc(OC3OC(CO)C(OC4OC(CO)C(O)C5OC(C)(C)OC45)C4OC(C)(C)OC34)cc2)NC1=O (stereo not shown) [Example 229a]", "CENSORING_OPERATOR": ">", "MIC Staphylococcus aureus (GC 4541) (µg/mL)": 128}
{"MOLECULE": "CC(C)=CCCC(C)C1OCC2OC(OC3C(CO)OC(Oc4ccc(CC5NC(=O)C(C(C)c6ccccc6)NC(=O)CNC(=O)C(CO)NC(=O)C(C(O)C6CNC(=N)N6C6OC(CO)C(O)C(O)C6O)NC(=O)C(C(O)C6CNC(=N)N6)NC5=O)cc4)C(O)C3O)C(O)C(O)C2O1 (stereo not shown)", "CENSORING_OPERATOR": "=", "MIC Staphylococcus aureus (GC 4541) (µg/mL)": 8}
{"MOLECULE": "CC(c1ccccc1)C1NC(=O)CNC(=O)C(CO)NC(=O)C(C(O)C2CNC(=N)N2C2OC(CO)C(O)C(O)C2O)NC(=O)C(C(O)C2CNC(=N)N2)NC(=O)C(Cc2ccc(OC3OC(CO)C(OC4OC(COC(=O)NCc5ccccc5)C(O)C(O)C4O)C(O)C3O)cc2)NC1=O (stereo not shown) [Example 257b]", "CENSORING_OPERATOR": "=", "MIC Staphylococcus aureus (GC 4541) (µg/mL)": 0.5}
{"MOLECULE": "COc1ccc(Oc2cccc(C3OCC4OC(OC5C(CO)OC(Oc6ccc(CC7NC(=O)C(C(C)c8ccccc8)NC(=O)CNC(=O)C(CO)NC(=O)C(C(O)C8CNC(=N)N8C8OC(CO)C(O)C(O)C8O)NC(=O)C(C(O)C8CNC(=N)N8)NC7=O)cc6)C(O)C5O)C(O)C(O)C4O3)c2)cc1 (stereo not shown)", "CENSORING_OPERATOR": "=", "MIC Staphylococcus aureus (GC 4541) (µg/mL)": 2}

Taken from patent US6914045B2.
